Source listed as ChEMBL document CHEMBL1126767.

- system_name: Angiotensin-converting enzyme (Homo sapiens)
- test: Inhibitory activity against angiotensin converting enzyme (ACE)
pIC50: −log10 of the molar value. Square brackets hold non-standard residues; d marks the D form. Peptide text beside a SMILES is read from it. Mpa = O=C(O)CCS
readout_label: pIC50

• C[C@H](NC(=O)CCS)C(=O)N1CCC[C@H]1C(=O)O ([Mpa]-Ala-Pro-OH) = 5.59
• NCCCC[C@H](OP(=O)(O)CCCCc1ccccc1)C(=O)N1C[C@H](C2CCCCC2)C[C@H]1C(=O)O = 8.49
• NCCC[C@H](NC(CCc1ccccc1)C(=O)O)C(=O)N1CCC[C@H]1C(=O)O (some centres undefined) = 8.66
• CC[C@@H](C)[C@H](C)C(=O)N[C@@H](Cc1ccccc1)C(=O)O = 3.03
• O=C(O)[C@@H]1CCCN1C(=O)CCP(=O)(O)O = 4.32
• C[C@H](NCCCc1ccccc1)C(=O)N1CCC[C@H]1C(=O)O = 5.24
• O=C(CCS)N[C@@H](Cc1c[nH]c2ccccc12)C(=O)O (stereo in doubt; form 2) = 5.34
• NCCCC[C@H](OP(=O)(O)CCCCc1ccccc1)C(=O)N1C[C@@H](Sc2ccccc2)C[C@H]1C(=O)O = 9.28
• Cc1ccc(N(CC(=O)O)C(=O)C(C)N)cc1 (centres undefined) = 5.59

###

- system_name: Angiotensin-converting enzyme (Rattus norvegicus)
- test: Inhibitory activity against angiotensin converting enzyme (ACE); Activity is for a diastereomeric or racemic mixture
readout_label: IC50 (nM)

• C[C@H](NC(C(=O)O)C(Cc1ccccc1)NC(=O)c1ccccc1)C(=O)N1CCC[C@H]1C(=O)O (stereo partly specified) = 7.76

###

- system_name: UniProt:P12821
- test: Inhibitory activity against angiotensin converting enzyme (ACE)
Values of IC50 strictly less than 30 µM map to true (1), and values of at least 30 µM map to false (0).

• C[C@@H](N)C(=O)N[C@@H](Cc1ccccc1)C(=O)O (stereo in doubt; 52) = false (0)
• O=C(CCS)N[C@@H](CS)C(=O)O = false (0)
• CC(C)(S)C(=O)N[C@@H](CC(=O)O)C(=O)O = false (0)
• C[C@H](NP(=O)(O)CCc1ccccc1)C(=O)N1CCC[C@H]1C(=O)O = true (1)
• O=C(CCS)N[C@@H](Cc1cnc[nH]1)C(=O)O = false (0)
• O=C(CS)N[C@@H](Cc1c[nH]c2ccccc12)C(=O)O = true (1)
• NCCCC[C@H](OP(=O)(O)CCCCc1ccccc1)C(=O)N1C[C@@H](Cc2ccccc2)C[C@H]1C(=O)O = true (1)
• NCCCC[C@H](OP(=O)(O)CCCCc1ccccc1)C(=O)N1C[C@@H](C2CCCCC2)C[C@H]1C(=O)O = true (1)
• NCCCC[C@H](OP(=O)(O)CCCCc1ccccc1)C(=O)N1C[C@@H](O)C[C@H]1C(=O)O = true (1)

###

- system_name: UniProt:P12821
- test: Inhibitory activity against angiotensin converting enzyme (ACE)
pIC50: −log10 of the molar value.
If the reported pIC50 equals or exceeds 3, assign T. If not, assign F.

* C[C@H](CC(CCc1ccccc1)C(=O)O)C(=O)N1c2ccccc2C[C@H]1C(=O)O (some centres not stated) | T
* O=C(O)CCC(=O)N1CCC[C@H]1C(=O)O | T
* O=C(N[C@H](CCC(=O)N1[C@H](C(=O)O)C[C@@H]2CCCC[C@@H]21)C(=O)O)C1CCCN1C(=O)OCc1ccccc1 (some centres not stated) | T
* O=C(CS)N[C@@H](CS)C(=O)O | T
* CS[C@H]1C[C@@H](C(=O)O)N(C(=O)[C@H](CCCCN)OP(=O)(O)CCCCc2ccccc2)C1 | T
* O=C(O)[C@@H]1C=CCN1C(=O)CCS | T
* NCCCC[C@H](OP(=O)(O)CCCCc1ccccc1)C(=O)N(CC(=O)O)C1CCCCC1 | T
* O=C(O)[C@H]1CCCN1C(=O)CCS | F
* CC(C)(S)C(=O)N[C@@H](CS)C(=O)O [BUCILLAMINE] | F
* C[C@H](CCC(=O)O)C(=O)N1CCC[C@H]1C(=O)O | T

###

- system_name: Angiotensin-converting enzyme (Homo sapiens)
- test: Inhibitory activity against angiotensin converting enzyme (ACE)
Peptide text beside a SMILES is read from it.
readout_label: IC50 (µM)

• O=C(O)CN1C(=O)C(NC(CCc2ccccc2)C(=O)O)CCc2ccccc21 (configuration not stated) = 0.0017
• O=C(NC(Cc1ccccc1)C(=O)N[C@H](CCC(=O)N1c2ccccc2C[C@H]1C(=O)O)C(=O)O)OCc1ccccc1 (some centres not stated) = 0.000251
• O=C(O)[C@@H]1C=CCn2c(=O)n(CS)c(=O)n21 = 0.708
• O=C(O)CCC(=O)CCS = 2.4
• COP(=O)(O)C(CCc1ccccc1)N[C@@H](C)C(=O)N1CCC[C@H]1C(=O)O (some centres not stated) = 0.437
• CCN(C[C@H](CCc1ccccc1)C(=O)O)C(=O)N1Cc2ccccc2C[C@H]1C(=O)O = 0.00646
• NCCCCC(N)C(=O)N[C@H](CCC(=O)N1[C@H](C(=O)O)C[C@@H]2CCCC[C@@H]21)C(=O)O (some centres not stated) = 0.012
• NCCCCC(NC(=O)OCc1ccccc1)C(=O)N[C@H](CCC(=O)N1c2ccccc2C[C@H]1C(=O)O)C(=O)O (some centres not stated) = 2.51
• C[C@H](NC(CCC(=O)Nc1ccccc1)C(=O)O)C(=O)N1CCC[C@H]1C(=O)O (some centres not stated) = 0.00525
• C[C@H](NC(=O)CCS)C(=O)O = 0.851
• NCC(=O)N1CCC[C@H]1C(=O)O [GLYCYL PROLINE] (H-Gly-Pro-OH) = 447
• O=C(CS)N[C@@H](Cc1c[nH]cn1)C(=O)O = 257
• CC(CS)C(=O)N[C@@H](Cc1c[nH]c2ccccc12)C(=O)O (stereo in doubt; 30A) = 0.0347
• NCCCC[C@H](OP(=O)(O)CCCCc1ccccc1)C(=O)N1c2ccccc2C[C@H]1C(=O)O = 0.000295
• N[C@@H](Cc1ccccc1)C(=O)N[C@H](CCC(=O)N1[C@H](C(=O)O)C[C@@H]2CCCC[C@@H]21)C(=O)O = 0.219
• CS[C@@H]1C[C@@H](C(=O)O)N(C(=O)[C@H](CCCCN)OP(=O)(O)CCCCc2ccccc2)C1 = 0.000525
• O=C(O)[C@@H]1CCCN1C(=O)CCS (stereo in doubt; 34) = 0.2
• CC(C)[C@H](NC(=O)CCS)C(=O)O = 1.58
• C[C@H](CC(=O)O)C(=O)N1CCC[C@H]1C(=O)O = 10.2
• NCCCC[C@H](OP(=O)(O)CCCCc1ccccc1)C(=O)N1C[C@H](Sc2ccccc2)C[C@H]1C(=O)O = 0.000776
• O=C(O)CCC(=O)NCC(=O)O = 2000
• C[C@H](NC(CCC(=O)Nc1ccc(I)cc1)C(=O)O)C(=O)N1CCC[C@H]1C(=O)O (some centres not stated) = 0.000229

###

- system_name: Angiotensin-converting enzyme (Homo sapiens, UniProt P12821)
- test: Inhibitory activity against angiotensin converting enzyme (ACE)
pIC50: −log10 of the molar value. Peptide text beside a SMILES is read from it.
readout_label: pIC50

• O=C(O)[C@@H]1CCC(=O)N1CCCS = 3.19
• CC[C@H](C)[C@H](N)C(=O)N1CCC[C@H]1C(=O)O (H-Ile-Pro-OH) = 3.89
• C[C@H](NP(=O)(O)O)C(=O)N1CCC[C@H]1C(=O)O = 6.11
• NCCCC[C@H](OP(=O)(O)CCCCc1ccccc1)C(=O)N1CC2(C[C@H]1C(=O)O)SCCS2 = 9.20
• O=C(O)CNC(=O)CCS = 5.55
• O=C(O)CCC(=O)N[C@@H](Cc1ccccc1)C(=O)O = 3.26
• C[C@H](NCC(=O)O)C(=O)N1CCC[C@H]1C(=O)O = 5.62
• C[C@H](NC(CCc1ccccc1)C(=O)O)C(=O)N(CC(=O)O)C1Cc2ccccc2C1 (stereo partly specified) = 7.40
• CCC(C)[C@H](NC(=O)CCC(=O)O)C(=O)O (stereo partly specified) = 2.98
• NC(Cc1ccccc1)C(=O)N[C@H](CCC(=O)N1[C@H](C(=O)O)C[C@@H]2CCCC[C@@H]21)C(=O)O (stereo partly specified) = 7.00
• C[C@H](NC(CCc1ccccc1)C(N)=O)C(=O)N1CCC[C@H]1C(=O)O (stereo partly specified) = 4.59

###

- system_name: Angiotensin-converting enzyme (Homo sapiens, UniProt P12821)
- test: Inhibitory activity against angiotensin converting enzyme (ACE)
Square brackets hold non-standard residues; d marks the D form. Peptide text beside a SMILES is read from it. ξ: configuration not given here. ξC = NC(CS)C(=O)O
readout_label: IC50 (µM)

• O=C(O)[C@@H]1CCCN1C(=O)C1CCC1S (stereo partly specified) = 0.049
• NCCCC[C@H](OP(=O)(O)CCCCc1ccccc1)C(=O)N1C[C@H](c2ccccc2)C[C@H]1C(=O)O = 0.339
• C[C@H](NC(CCCNC(=O)OCc1ccccc1)C(=O)O)C(=O)N1CCC[C@H]1C(=O)O (stereo partly specified) = 0.00288
• CC(C)(S)C(=O)N[C@@H](Cc1c[nH]c2ccccc12)C(=O)O = 38
• NC(CS)C(=O)N1CCC[C@H]1C(=O)O (stereo partly specified) (H-[ξC]-Pro-OH) = 0.0631
• CC(C)C[C@H](NC(=O)CCC(=O)O)C(=O)O = 617
• O=C(NC(Cc1ccccc1)CP(=O)(O)CC(=O)N1CCC[C@H]1C(=O)O)c1ccccc1 (stereo partly specified) = 0.01
• O=C(NC(CCc1ccccc1)P(=O)(O)CC(=O)N1CCC[C@H]1C(=O)O)c1ccccc1 (stereo partly specified) = 0.0724
• O=C(O)C(CCc1ccccc1)N[C@H]1CCN2CCC[C@@H](C(=O)O)N2C1=O (stereo partly specified) = 0.0562
• COc1ccc(N(CC(=O)O)C(=O)[C@H](CCCCN)OP(=O)(O)CCCCc2ccccc2)cc1OC = 0.000288
• O=C(CCS)N[C@@H](Cc1ccccc1)C(=O)O = 0.427
• NCCCC[C@H](OP(=O)(O)CCCCc1ccccc1)C(=O)N(CC(=O)O)c1ccccc1 = 0.00107
• CC(C(=O)O)C1CCCCC(CS)C1=O (stereo unspecified) = 0.0525
• C[C@H](NC(=O)CCC(=O)O)C(=O)O = 1350
• C[C@@H](N)C(=O)N[C@@H](Cc1ccccc1)C(=O)O (stereo in doubt; 53) = 52.5
• CC(S)C(=O)N[C@@H](CS)C(=O)O (stereo in doubt; form 2) = 7.94
• C[C@H](NC(C(=O)O)C1CCCN1C(=O)c1ccccc1)C(=O)N1CCC[C@H]1C(=O)O (stereo partly specified) = 0.00288
• C[C@@]1(CCS)C(=O)N2CC=C[C@@H](C(=O)O)N2C1=O = 0.1
• NCC(=O)N[C@@H](Cc1ccccc1)C(=O)O (H-Gly-Phe-OH) = 603
• CSC1(SC)C[C@@H](C(=O)O)N(C(=O)[C@H](CCCCN)OP(=O)(O)CCCCc2ccccc2)C1 = 0.00257
• CC(S)C(=O)N[C@@H](Cc1c[nH]c2ccccc12)C(=O)O (stereo in doubt; form 2) = 0.0646
